# TESTED_TARGET: SMYD3 (Homo sapiens (Human), UniProt Q9H7B4)
# TEST_DESCRIPTION: SMYD3 biochemical assay (SPA, 3H-SAM methylation of MEKK2 protein substrate)
# TEST_SETTINGS: read-out: SMYD3 Biochem IC50 (μM)*
For each entry below, report its IC50 value.

*Q* Need IC50, item C[C@H]1CC(NC(=O)c2cc(C3CC3)on2)CCN1C(=O)[C@H]1CCC[C@@H](N)C1 (some centres unmarked) [compound 117]
*A* 5.6 µM

*Q* Need IC50, item CC1CC(NC(=O)c2cc(C3CC3)on2)CCN1C(=O)Cc1ncc[nH]1 (centres unmarked) [compound 427]
*A* > 10 µM

*Q* Need IC50, item C[C@H]1CC(NC(=O)c2cc(C3CC3)on2)CCN1C(=O)[C@H]1C[C@@H](N)C1 (some centres unmarked) [compound 71]
*A* 2.54 µM

*Q* Need IC50, item C[C@H]1C[C@@H](NC(=O)c2cc(C3CC3)on2)CCN1S(=O)(=O)CC1CCNCC1 (single isomer, unassigned) [Cpd. No. 417]
*A* 0.00307 µM

*Q* Need IC50, item C[C@@H]1CN(C(=O)CC2CCNCC2)CC[C@@H]1NC(=O)c1cc(C2CC2)on1 [compound 149]
*A* 0.291 µM

*Q* Need IC50, item C[C@H]1C[C@H](NC(=O)c2cc(C3CC3)on2)CCN1C(=O)CC(CN)Cc1ccccc1 (some centres unmarked) [compound 271]
*A* > 10 µM

*Q* Need IC50, item C[C@@H]1CC(NC(=O)c2cc(C3CC3)on2)CCN1C(=O)[C@H]1C[C@H](N)C1 (some centres unmarked) [compound 97]
*A* 0.779 µM

*Q* Need IC50, item O=C(N[C@@H]1CCN(C(=O)CC2CCNCC2)[C@@H](Cc2ccccc2)C1)c1cc(C2CC2)on1 [compound 376]
*A* 1.32 µM

*Q* Need IC50, item O=C(NC1CCN(C(=O)CC2CCNCC2)C(Cc2ccccc2)C1)c1cc(C2CC2)on1 (centres unmarked) [compound 109]
*A* 0.0968 µM

*Q* Need IC50, item CC(C)OCCS(=O)(=O)N1CC[C@H](NC(=O)c2cc(C3CC3)on2)C[C@H]1C [compound 285]
*A* > 10 µM

*Q* Need IC50, item CC1(C)CN(C(=O)CCCN)CCC1NC(=O)c1cc(C2CC2)on1 (centres unmarked) [compound 161]
*A* 1.25 µM
